- assayRemarks: Conversion rate of substrate compound A by E. coli expressing each engineered protein (HPLC, oxygenase activity)
- Assay type: biochemical
- conditionDescription: Reaction condition 2: bacteria cultured overnight, 8 times dose of substrate compound A of condition 1 added, react 3 hours the next day
endpoint: Conversion rate (%)

>>> endpointresult("SEQ ID NO: 94 (protein) MHAALSPLSQRFERIAVQPLTGVLGAEITGVDLREPLDDSTWNEILDAFHTYQVIYFPGQAITNEQHIAFSRRFGPVDPVPHLKSIEGYPEVQMIRREANESLRVIGDDWHTDSTFLDAPPAAVVMRAIDVPEHGGDTGFLSMYTAWETLSPTMQATIEGLNVVHSATRVFGSLYQAQNWRWSNTSLKVMDVDAGDRETVHPLVVTHPGSGRKGLYVNQVYCQRIEGMTDAESKPLLQFLYEHATRFDFTCRVRWKKDQVLVWDNLCTMHRAVPDYAGKFRYLTRTTVGGVRPAR")
63.2
>>> endpointresult("SEQ ID NO: 130 (protein) MHAALSPLSQRFERIAVQPLTGVLGAEITGVDLREPLDDSTWNEILDAFHTYQVIYFPGQAITNEQHIAFSRRFGPVDPVPHLKSIEGYPEVQMIRREANESGGVIGDDWHSDSTFLDAPPAAVVMRAIDVPEHGGDTGFLSMYTAWETLSPTMQATIEGLNVVHSATRVFGSLYQAQNMRWSNTSLKVMDVDAGDRETVHPLVVTHPGSGRKGLYVNQVYCQRIEGMTDAESKPLLQFLYEHATRFDFTCRVRWKKDQVLVWDNLCTMHRAVPDYAGKFRYLTRTTVGGVRPAR")
88.3
>>> endpointresult("SEQ ID NO: 86: RdpA mutant L82H + V187L + F182W + G103L + R180S (protein) MHAALSPLSQRFERIAVQPLTGVLGAEITGVDLREPLDDSTWNEILDAFHTYQVIYFPGQAITNEQHIAFSRRFGPVDPVPHLKSIEGYPEVQMIRREANESLRVIGDDWHTDSTFLDAPPAAVVMRAIDVPEHGGDTGFLSMYTAWETLSPTMQATIEGLNVVHSATRVFGSLYQAQNSRWSNTSLKVMDVDAGDRETVHPLVVTHPGSGRKGLYVNQVYCQRIEGMTDAESKPLLQFLYEHATRFDFTCRVRWKKDQVLVWDNLCTMHRAVPDYAGKFRYLTRTTVGGVRPAR")
76.8
>>> endpointresult("SEQ ID NO: 110 (protein) MHAALSPLSQRFERIAVQPLTGVLGAEITGVDLREPLDDSTWNEILDAFHTYQVIYFPGQAITNEQHIAFSRRFGPVDPVPHLKSIEGYPEVQMIRREANESLRVIGDDWHMDSTFLDAPPAAVVMRAIDVPEHGGDTGFLSMYTAWETLSPTMQATIEGLNVVHSATRVFGSLYQAQNRRWSNTSLKVMDVDAGDRETVHPLVVTHPGSGRKGLYVNQVYCQRIEGMTDAESKPLLQFLYEHATRFDFTCRVRWKKDQVLVWDNLCTMHRAVPDYAGKFRYLTRTTVGGVRPAR")
54.6
